- assay-explanation: Solubility of Compound I sodium salt forms in solvents and binary solvent systems
- Format: physicochemical
- condition-notes: organic solvent or mixture, thermodynamic from solid; DMF, 60° C.; read-out: Solubility
reported-endpoint: solubility

State its solubility: O=C(O)c1cc(-c2ccc(OC3CC3)c(Cl)c2)ncn1 [Compound I sodium Pattern A]
5800 to 7700 µg/mL

---

- assay-explanation: Dynamic vapor sorption/desorption (DVS)
- Format: physicochemical
reported-endpoint: hygroscopicity by DVS analysis (in words)

>>> measured_result("O=C(O)c1cc(-c2ccc(OC3CC3)c(Cl)c2)ncn1 [Compound I sodium Pattern A]")
"hygroscopic"
>>> measured_result("O=C(O)c1cc(-c2ccc(OC3CC3)c(Cl)c2)ncn1 [Compound I tromethamine Form A]")
"not hygroscopic"
>>> measured_result("O=C(O)c1cc(-c2ccc(OC3CC3)c(Cl)c2)ncn1 [Compound I diethanolamine Form A]")
"not hygroscopic"
>>> measured_result("O=C(O)c1cc(-c2ccc(OC3CC3)c(Cl)c2)ncn1 [Compound I sodium Form B]")
"hygroscopic"

Name the recorded hygroscopicity by DVS analysis (in words) of the compound listed here: O=C(O)c1cc(-c2ccc(OC3CC3)c(Cl)c2)ncn1 [Compound I diethylamine Material A]
hygroscopic

Ref: patent US11173156B2
